Assay: endothelial E-selectin expression blockers – imaging, HUVEC, immunofluorescence, MLSMR starter and 10KST1 sets, primary screen (AID 487);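 also: signal is fraction of cell area covered by stained E-selectin grains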
Conditions: HUVEC TNFalpha-induced E-selectin immunofluorescence imaging, at 2 µM; active compounds read high
PROPERTY_NAME: inhibition (%)
Numeric answer only, unit % assumed.

Ask: Please report the recorded inhibition for "CC1(C)CC(CCNC(=O)c2ccco2)CC(C)(C)N1" .
Result: -91.3

Ask: Also O=C(COc1ccc(S(=O)(=O)NC2CCCCC2)cc1Cl)NCC1CCCO1 (stereo not given) , if possible.
Result: -111

Ask: Also COc1cc2c(=O)nc3n(c2cc1OC)C(c1ccccc1)N=C(N)N3 (stereo not given) , if possible.
Result: 0.3

Ask: Also "COc1cc2c3c(c1)/C(=C1/SC(NC(C)=O)=NC1=O)C(=O)N3C(C)(C)C=C2C" , if possible.
Result: -35.9

Ask: Also "CCc1nc(C)c(C#N)c2cc(OC)c(OC)cc12" , if possible.
Result: -7.1

====

Assay: TLR3 IRF3 reporter activation blockers – cell-based, poly I:C stimulus, luciferase, 10K MLSCN set, primary screen (AID 602277)
Details: HEK293-TLR3 RL24 IRF3 luciferase reporter, at 10 µM, active compounds read high
The source made the active and inactive calls.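 How the source made its calls: active means inhibition of the reporter signal at or above 50%; inactive means inhibition below 50%.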
inhibition: recorded values

Ask: Please report the recorded inhibition for "CSc1nc2ccc(Nc3nc(N4CCOCC4)nc(N4CCOCC4)n3)cc2s1" .
Result: -49.5% (inactive)

Ask: Also "O=C(O)c1cc2nc(-c3ccc(F)cc3)cc(C(F)(F)F)n2n1" , if possible.
Result: 19.6% (inactive)

Ask: Also "Cc1ccc(NC(=O)c2ccccc2O)cc1" , if possible.
Result: -73.1% (inactive)

Ask: Also "COC(=O)c1ccccc1NC(=O)c1ccc(-c2ccccc2F)o1" , if possible.
Result: -29.6% (inactive)

====

Molecular target: Voltage-gated potassium channel subunit beta-2 (Rattus norvegicus)
Assay: enhancers of rat Kvbeta2 NADPH turnover – biochemical, NADPH fluorescence, primary screen (AID 623);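 also: fluorescence intensity change per second fitted from 20 to 320 s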
Settings: Recombinant KvBeta, NADPH fluorescence decrease slope, 10 min; at 10 µM; active compounds read low
NADPH fluorescence slope: recorded values
Enter the number alone.

Guide cases for NADPH fluorescence slope, answers given:
>>> result_value("Cn1nc(C(=O)NC2CCCCCC2)ccc1=O")
"-2.1e-05"
>>> result_value("C=CCn1c(N)c(C(=O)NCCC2=CCCCC2)sc1=S")
"-1.2e-05"

Note: attention shifts to another entry.
Ask: Please report the recorded NADPH fluorescence slope for "Nn1c(SCc2csc(-c3ccccc3)n2)nnc1-c1cccs1" .
Result: -7.1e-06

====

NADPH fluorescence slope: recorded values
Target: Voltage-gated potassium channel subunit beta-2 (Rattus norvegicus)
Experiment: enhancers of rat Kvbeta2 NADPH turnover – biochemical, NADPH fluorescence, primary screen (AID 623);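 also: fluorescence intensity change per second fitted from 20 to 320 s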
Settings: Recombinant KvBeta, NADPH fluorescence decrease slope, 10 min; at 10 µM; active compounds read low
Enter the number alone.

Guide cases for NADPH fluorescence slope, answers given:
>>> result_value("CCOC(=O)C1CCN(S(=O)(=O)c2cccc(-c3csc(C)n3)c2)CC1")
-0.000124
>>> result_value("CN1C(=O)CCC1(O)c1ccccc1 (stereo not drawn)")
"1.8e-06"
>>> result_value("O=C(Cn1cnc2c(cnn2-c2ccccc2)c1=O)NCCc1ccccc1")
"-6.8e-07"
>>> result_value("Cc1cc(C)cc(OCC(=O)NC2=NCCS2)c1")
"1.2e-05"
>>> result_value("COc1cc(-c2nnc(SCc3c(F)cccc3Cl)o2)cc(OC)c1OC")
"-1.6e-06"

Ask: API: value(readout=NADPH fluorescence slope, system=Voltage-gated potassium channel subunit beta-2 (Rattus norvegicus)) for record CCC(C)(C(=O)NC1CCCCC1)N(CC1CCCO1)C(=O)c1ccccn1 (stereo not drawn)
Result: -8.5e-05

Ask: Also "COC(=O)CSc1nnc(-c2ccncc2)o1" , if possible.
Result: -4.6e-05

Ask: Also "Cc1c(NC(=O)CCc2ccc(S(=O)(=O)N3CCOCC3)cc2)c(=O)n(-c2ccccc2)n1C" , if possible.
Result: -1.9e-05

Ask: Also "CCOc1ccc(NC(=O)c2ccccc2O)cc1" , if possible.
Result: -2e-05

Ask: Also "O=C(Nc1nc(-c2cccs2)cs1)c1cccc(S(=O)(=O)N2CCCCC2)c1" , if possible.
Result: -2.5e-05

Ask: Also "NC(=O)c1cccc(S(=O)(=O)N2CCCCC2)c1" , if possible.
Result: -4.7e-05

Ask: Also "O=C(NCC12CC3CC(C1)CC(CNC(=O)N1CCCC1)(C3)C2)N1CCCC1" , if possible.
Result: -6e-05

Ask: Also "Cc1ccc2oc(=O)c3cnn(CC(=O)NCCC(C)C)c3c2c1" , if possible.
Result: -2.9e-05

Ask: Also Cc1ccc(S(=O)(=O)N2CCCC2C(=O)OCc2nc3ccccc3s2)cc1 (stereo not drawn) , if possible.
Result: -5.7e-05

Ask: Also "CCCCn1nc(C(=O)N2CCc3ccccc32)c2ccccc2c1=O" , if possible.
Result: 2e-05

Ask: Also "CCOC(=O)c1cccc(NC(=O)c2ccco2)c1" , if possible.
Result: -6e-05

Ask: Also O=C(COc1ccc(S(=O)(=O)NC2CCCCC2)cc1Cl)NCC1CCCO1 (stereo not drawn) , if possible.
Result: -1.9e-05

Ask: Also "COc1ccccc1NC(=O)Cc1noc(CSc2cc(C)c3ccccc3n2)n1" , if possible.
Result: -5.3e-05
